# STUDY SYSTEM: μ-opioid receptor (Rattus norvegicus)
# Construct: synaptic membrane fraction obtained from the rat brain tissue; from tissue; host or cells: Sprague-Dawley rat brain without cerebellum, synaptic membrane (P2) fraction
# TEST METHOD NOTES: Competitive receptor binding assay, synaptic membrane fraction, [3H]DAGO
# STUDY CONDITIONS: ratio Ki δ / Ki μ
ENDPOINT LABEL: Selectivity δ/μ
Form: value (number only, do not type unit).

Example entries begin here.
Prompt: What does the record list as Selectivity δ/μ for Cc1cc(O)cc(C)c1C[C@H](N)C(=O)NCCNC(=O)[C@@H](N)Cc1c(C)cc(O)cc1C [Ex.5, 1,2-Bis(Dmt-amino)ethane.2TFA] ?
Completion: 81

Prompt: Item: Cc1cc(O)cc(C)c1C[C@H](N)C(=O)NCCCCNC(=O)[C@@H](N)Cc1ccc(O)cc1 [Ex.3, 1-(Dmt-amino)-4-Tyr-aminobutane.2HCl]
Completion: 349

Prompt: Item: Cc1cc(O)cc(C)c1C[C@H](N)C(=O)NCCCCCCCCNC(=O)[C@@H](N)Cc1c(C)cc(O)cc1C [Ex.6, 1,8-Bis(Dmt-amino)octane.2TFA]
Completion: 78

New cases:
Prompt: What does the record list as Selectivity δ/μ for N[C@@H](Cc1ccc(O)cc1)C(=O)NCCNC(=O)[C@@H](N)Cc1ccc(O)cc1 [Ref.ex.4, 1,2-Bis(Tyr-amino)ethane.2TFA, reference compound] ?
Completion: 13

Prompt: Item: Cc1cc(O)cc(C)c1C[C@H](N)C(=O)NCCCCCCNC(=O)[C@@H](N)Cc1c(C)cc(O)cc1C [Ex.4, 1,6-Bis(Dmt-amino)hexane.2HCl]
Completion: 870

Prompt: Item: N[C@@H](Cc1ccc(O)cc1)C(=O)NCCCCNC(=O)[C@@H](N)Cc1ccc(O)cc1 [Ref.ex.2, 1,4-Bis(Tyr-amino)butane.2HCl, reference compound]
Completion: 21

Prompt: Item: Cc1cc(O)cc(C)c1C[C@H](N)C(=O)NCCCCNC(=O)[C@@H](N)Cc1c(C)cc(O)cc1C.Cl.Cl [Ex.1, 1,4-Bis-(Dmt-amino)butane.2HCl]
Completion: 1300

* * *

# STUDY SYSTEM: μ-opioid receptor (Cavia porcellus)
# Sequence (A0ACM8Q262 1-400): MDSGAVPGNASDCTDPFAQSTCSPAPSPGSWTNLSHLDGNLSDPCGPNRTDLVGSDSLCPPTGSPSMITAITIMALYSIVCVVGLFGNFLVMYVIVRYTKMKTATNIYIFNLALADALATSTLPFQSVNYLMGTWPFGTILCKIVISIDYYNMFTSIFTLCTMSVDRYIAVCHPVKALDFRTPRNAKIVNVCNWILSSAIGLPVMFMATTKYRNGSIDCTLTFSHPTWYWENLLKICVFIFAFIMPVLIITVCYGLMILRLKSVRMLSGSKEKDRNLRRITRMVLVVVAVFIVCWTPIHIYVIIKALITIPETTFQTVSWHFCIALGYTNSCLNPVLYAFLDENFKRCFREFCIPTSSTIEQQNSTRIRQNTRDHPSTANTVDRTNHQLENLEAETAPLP
# TEST METHOD NOTES: Guinea pig ileum (GPI) assay, inhibition of electrically stimulated constriction
# STUDY CONDITIONS: agonist activity, read-out: GPI (IC50 ± S.E.)
ENDPOINT LABEL: pIC50
Answer as the number alone; pIC50 is minus log10 of concentration in mol/L.

Prompt: What does the record list as pIC50 for Cc1cc(O)cc(C)c1C[C@H](N)C(=O)NCCCCNC(=O)[C@@H](N)Cc1c(C)cc(O)cc1C.Cl.Cl [Ex.1, 1,4-Bis-(Dmt-amino)butane.2HCl] ?
Completion: 8.27

* * *

# STUDY SYSTEM: μ-opioid receptor (Rattus norvegicus, UniProt P33535)
# Construct: synaptic membrane fraction obtained from the rat brain tissue; from tissue; host or cells: Sprague-Dawley rat brain without cerebellum, synaptic membrane (P2) fraction
# Sequence (P33535 whole entry): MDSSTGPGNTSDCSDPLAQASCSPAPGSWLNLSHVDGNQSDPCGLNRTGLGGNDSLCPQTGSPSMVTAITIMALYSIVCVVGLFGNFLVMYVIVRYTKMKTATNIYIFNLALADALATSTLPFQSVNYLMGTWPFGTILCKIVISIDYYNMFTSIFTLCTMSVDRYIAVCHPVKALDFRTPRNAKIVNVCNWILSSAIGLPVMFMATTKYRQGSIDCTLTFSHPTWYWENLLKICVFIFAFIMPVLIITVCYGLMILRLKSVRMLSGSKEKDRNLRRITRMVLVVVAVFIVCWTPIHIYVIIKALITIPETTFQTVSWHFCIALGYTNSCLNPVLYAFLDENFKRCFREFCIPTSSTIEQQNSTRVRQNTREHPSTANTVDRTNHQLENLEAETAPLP
# TEST METHOD NOTES: Competitive receptor binding assay, synaptic membrane fraction, [3H]DAGO
# STUDY CONDITIONS: rat brain synaptic membrane, [3H]DAGO; read-out: Affinity of receptor (Ki, nM) μ
Listed here are molecules together with their documented Ki.
Write it as a number; the unit nM goes unstated.

Example entries begin here.
Prompt: What does the record list as Ki for Cc1cc(O)cc(C)c1C[C@H](N)C(=O)NCCCCCCNC(=O)[C@@H](N)Cc1c(C)cc(O)cc1C [Ex.4, 1,6-Bis(Dmt-amino)hexane.2HCl] ?
Completion: 0.053

Prompt: Item: Cc1cc(O)cc(C)c1C[C@H](N)C(=O)NCCCCCCCCNC(=O)[C@@H](N)Cc1c(C)cc(O)cc1C [Ex.6, 1,8-Bis(Dmt-amino)octane.2TFA]
Completion: 0.19

Prompt: Item: N[C@@H](Cc1ccccc1)C(=O)NCCCCNC(=O)[C@@H](N)Cc1ccccc1 [Ref.ex.1, 1,4-Bis(Phe-amino)butane.2HCl, reference compound]
Completion: 1530

Prompt: Item: N[C@@H](Cc1ccc(O)cc1)C(=O)NCCCCCCCCNC(=O)[C@@H](N)Cc1ccc(O)cc1 [Ref.ex.5, 1,8-Bis(Tyr-amino)octane.2TFA, reference compound]
Completion: 399

Prompt: Item: N[C@@H](Cc1ccc(O)cc1)C(=O)NCCCCNC(=O)[C@@H](N)Cc1ccc(O)cc1 [Ref.ex.2, 1,4-Bis(Tyr-amino)butane.2HCl, reference compound]
Completion: 309

Prompt: Item: N[C@@H](Cc1ccc(O)cc1)C(=O)NCCNC(=O)[C@@H](N)Cc1ccc(O)cc1 [Ref.ex.4, 1,2-Bis(Tyr-amino)ethane.2TFA, reference compound]
Completion: 648

Prompt: Item: Cc1cc(O)cc(C)c1C[C@H](N)C(=O)NCCCCNC(=O)[C@@H](N)Cc1c(C)cc(O)cc1C.Cl.Cl [Ex.1, 1,4-Bis-(Dmt-amino)butane.2HCl]
Completion: 0.041

Prompt: Item: Cc1cc(O)cc(C)c1C[C@H](N)C(=O)NCCCCNC(=O)[C@@H](N)Cc1ccc(O)cc1 [Ex.3, 1-(Dmt-amino)-4-Tyr-aminobutane.2HCl]
Completion: 0.38

Prompt: Item: Cc1cc(O)cc(C)c1C[C@H](N)C(=O)NCCNC(=O)[C@@H](N)Cc1c(C)cc(O)cc1C [Ex.5, 1,2-Bis(Dmt-amino)ethane.2TFA]
Completion: 1.43

Prompt: Item: Cc1cc(O)cc(C)c1C[C@H](N)C(=O)NCCCCNC(=O)[C@@H](N)Cc1ccccc1 [Ex.2, 1-Dmt-amino-4-Phe-aminobutane.2HCl]
Completion: 0.52

# context switch: different molecule, same Ki
Prompt: What does the record list as Ki for N[C@@H](Cc1ccc(O)cc1)C(=O)NCCCCCCNC(=O)[C@@H](N)Cc1ccc(O)cc1.O=C(O)C(F)(F)F.O=C(O)C(F)(F)F [Ref.ex.3, 1,6-Bis(Tyr-amino)hexane.2TFA, reference compound] ?
Completion: 410

* * *

# STUDY SYSTEM: μ-opioid receptor (Rattus norvegicus, UniProt P33535)
# Construct: synaptic membrane fraction obtained from the rat brain tissue; from tissue; host or cells: Sprague-Dawley rat brain without cerebellum, synaptic membrane (P2) fraction
# TEST METHOD NOTES: Competitive receptor binding assay, synaptic membrane fraction, [3H]DAGO
# STUDY CONDITIONS: ratio Ki δ / Ki μ
Listed here are molecules together with their documented Selectivity δ/μ.
Form: value (number only, do not type unit).

Prompt: What does the record list as Selectivity δ/μ for N[C@@H](Cc1ccc(O)cc1)C(=O)NCCCCCCNC(=O)[C@@H](N)Cc1ccc(O)cc1.O=C(O)C(F)(F)F.O=C(O)C(F)(F)F [Ref.ex.3, 1,6-Bis(Tyr-amino)hexane.2TFA, reference compound] ?
Completion: 53

Prompt: Item: Cc1cc(O)cc(C)c1C[C@H](N)C(=O)NCCCCNC(=O)[C@@H](N)Cc1ccccc1 [Ex.2, 1-Dmt-amino-4-Phe-aminobutane.2HCl]
Completion: 117

New cases:
Prompt: What does the record list as Selectivity δ/μ for N[C@@H](Cc1ccccc1)C(=O)NCCCCNC(=O)[C@@H](N)Cc1ccccc1 [Ref.ex.1, 1,4-Bis(Phe-amino)butane.2HCl, reference compound] ?
Completion: 30

* * *

Listed here are compounds together with their documented Ki.
# STUDY SYSTEM: δ-opioid receptor (Rattus norvegicus, UniProt P33533)
# Construct: synaptic membrane fraction obtained from the rat brain tissue; from tissue; host or cells: Sprague-Dawley rat brain without cerebellum, synaptic membrane (P2) fraction
# Sequence (P33533 whole entry): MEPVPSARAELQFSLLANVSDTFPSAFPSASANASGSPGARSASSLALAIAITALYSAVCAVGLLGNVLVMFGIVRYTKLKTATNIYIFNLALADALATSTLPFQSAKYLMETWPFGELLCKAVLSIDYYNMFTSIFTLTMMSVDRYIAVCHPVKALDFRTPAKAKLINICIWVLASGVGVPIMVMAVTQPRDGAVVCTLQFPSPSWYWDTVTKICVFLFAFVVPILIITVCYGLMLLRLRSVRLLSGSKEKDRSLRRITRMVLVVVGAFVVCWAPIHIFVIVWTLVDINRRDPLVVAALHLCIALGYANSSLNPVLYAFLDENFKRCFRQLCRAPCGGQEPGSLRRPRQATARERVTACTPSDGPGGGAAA
# TEST METHOD NOTES: Competitive receptor binding assay, synaptic membrane fraction, [3H]DPDPE
# STUDY CONDITIONS: rat brain synaptic membrane, read-out: Affinity of receptor (Ki, nM) δ
Note: a bare number is incomplete; add the unit.

Prompt: What does the record list as Ki for N[C@@H](Cc1ccc(O)cc1)C(=O)NCCCCNC(=O)[C@@H](N)Cc1ccc(O)cc1 [Ref.ex.2, 1,4-Bis(Tyr-amino)butane.2HCl, reference compound] ?
Completion: 6500 nM

Prompt: Item: Cc1cc(O)cc(C)c1C[C@H](N)C(=O)NCCCCNC(=O)[C@@H](N)Cc1c(C)cc(O)cc1C.Cl.Cl [Ex.1, 1,4-Bis-(Dmt-amino)butane.2HCl]
Completion: 53.4 nM

Prompt: Item: Cc1cc(O)cc(C)c1C[C@H](N)C(=O)NCCCCNC(=O)[C@@H](N)Cc1ccc(O)cc1 [Ex.3, 1-(Dmt-amino)-4-Tyr-aminobutane.2HCl]
Completion: 133 nM

Prompt: Item: Cc1cc(O)cc(C)c1C[C@H](N)C(=O)NCCCCCCCCNC(=O)[C@@H](N)Cc1c(C)cc(O)cc1C [Ex.6, 1,8-Bis(Dmt-amino)octane.2TFA]
Completion: 14.8 nM

Prompt: Item: N[C@@H](Cc1ccc(O)cc1)C(=O)NCCCCCCNC(=O)[C@@H](N)Cc1ccc(O)cc1.O=C(O)C(F)(F)F.O=C(O)C(F)(F)F [Ref.ex.3, 1,6-Bis(Tyr-amino)hexane.2TFA, reference compound]
Completion: 21900 nM

Prompt: Item: N[C@@H](Cc1ccc(O)cc1)C(=O)NCCNC(=O)[C@@H](N)Cc1ccc(O)cc1 [Ref.ex.4, 1,2-Bis(Tyr-amino)ethane.2TFA, reference compound]
Completion: 8290 nM

Prompt: Item: N[C@@H](Cc1ccccc1)C(=O)NCCCCNC(=O)[C@@H](N)Cc1ccccc1 [Ref.ex.1, 1,4-Bis(Phe-amino)butane.2HCl, reference compound]
Completion: 46200 nM

# context switch: different compound, same Ki
Prompt: What does the record list as Ki for Cc1cc(O)cc(C)c1C[C@H](N)C(=O)NCCNC(=O)[C@@H](N)Cc1c(C)cc(O)cc1C [Ex.5, 1,2-Bis(Dmt-amino)ethane.2TFA] ?
Completion: 116 nM

Data provenance: patent US6838580B2
